Recorded values, source PubChem BioAssay (EPA / NIEHS).

# Assay Info: ACEA_AR_antagonist_AUC_viability: ACEA Biosciences xCELLigence Real-Time Cell Analysis on Androgen Receptor Antagonism for Viability (AID 2283776);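 also: 22Rv1 human prostate cancer cells growing on impedance electrode plates; area under impedance growth curve at 80 h after dosing as viability; hits lower the growth signal relative to DMSO meaning cytotoxicity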
Inconclusive results are not listed. Calls of active or inactive are those of the source. The calls were made as follows: active = hit-call score of the fitted dose curve at least 0.9, where 1 is the maximum; inconclusive = response in the unintended direction; inactive = score below 0.9.
In this exercise, the only acceptable responses are 1 (yes) = active, 0 (no) = inactive

Known results for molecules:
Molecule	Class
CCCCCC[C@@H](O)C/C=C\CCCCCCCC(=O)O	0 (no)
Cc1cc2nc3c(=O)[nH]c(=O)nc-3n(C[C@H](O)[C@H](O)[C@H](O)CO)c2cc1C	0 (no)
CC/C=C\CCO	0 (no)
O=S(=O)(O)c1cccc2ccccc12	0 (no)
O=C(CC(C(=O)OC1CCCCC1)S(=O)(=O)O)OC1CCCCC1 (configuration not stated)	0 (no)
C[Si](C)(C)O[Si](C)(C)O[Si](C)(C)C	0 (no)

Qu. Test call for this molecule, please: CCC(C)(CCC(C)C)C(=O)O (configuration not stated)
Ans. 0 (no)

Qu. Test call for this molecule, please: F[B-](F)(F)F
Ans. 0 (no)
